The measurements presented in this section are drawn from patent US8008547B2.

- protocol details: Standard protocol for determination of kcat and KM (continuous spectrophotometric assay, Acetyl CoA hydrolysis at 235 nm)
- Assay type: biochemical
- conditions: purified protein; about 23° C.; 20 mM HEPES pH 6.8, 10% ethylene glycol, 0.2 mM acetyl CoA
recorded metric: Kcat (s⁻¹)
Give the value in s⁻¹ but do not write s⁻¹ after it.

SEQ ID NO: 346: GAT polypeptide (protein, 19D5, GAT polypeptide) MIEVKPINAEDTYEIRHCILRPNQPLEACMYETDLLGGTFHLGGYYQGKLISIASFHKAEHSELEGQKQYQLRGMATLEGYREQKAGSTLIRHAEELLRKKGADLLWCNARTSVSGYYKKLGFSEQGEVYDIPPIGPHILMYKKLT :: 0.0367

Ask | Record request: Kcat value, item SEQ ID NO: 313: GAT polypeptide (protein, 14_2G11, GAT polypeptide) MIEVKPINAEDTYEIRHRILRPNQPLEACKYETDLLRGAFHLGGYYRGKLVSIASFHQAEHPELEGQKQYQLRGMATLEGYREQKAGSTLIRHAEELLRKKGADLLWCNARTSASGYYKKLGFSEQGEVYDIPPTGPHILMYKKLT
Reply | 1.16
